Source: ChEMBL document CHEMBL1133637

compounds and their reported pIC50
Biological target: Human immunodeficiency virus type 1 protease (Human immunodeficiency virus 1, UniProt Q72874)
pIC50: −log10 of the molar value.

# compound, pIC50
records = [
    ("CC(C)(C)NC(=O)[C@@H]1CN(Cc2cnc3ccoc3c2)CCN1C[C@@H](O)C[C@@H](Cc1ccccc1)C(=O)NC1c2ccccc2C[C@H]1O (some centres undefined)", 9.77),
    ("Cc1ccc(CN2CCN(C[C@@H](O)C[C@@H](Cc3ccccc3)C(=O)NC3c4ccccc4C[C@H]3O)[C@H](C(=O)NC(C)(C)C)C2)cn1 (some centres undefined)", 9.21),
    ("CC(C)(C)NC(=O)C1CN(Cc2cc3cccnc3s2)CCN1CC(O)CC(Cc1ccccc1)C(=O)NC1c2ccccc2CC1O (centres undefined)", 9.96),
    ("CC(C)(C)NC(=O)C1CN(Cc2c[nH]c3ccccc23)CCN1CC(O)CC(Cc1ccccc1)C(=O)NC1c2ccccc2CC1O (centres undefined)", 8.77),
    ("CC(C)(C)NC(=O)[C@@H]1CN(Cc2cnc3ccccc3c2)CCN1C[C@@H](O)C[C@@H](Cc1ccccc1)C(=O)NC1c2ccccc2C[C@H]1O (some centres undefined)", 9.85),
    ("CC(C)(C)NC(=O)[C@@H]1CN(Cc2cc3cnccc3o2)CCN1C[C@@H](O)C[C@@H](Cc1ccccc1)C(=O)NC1c2ccccc2C[C@H]1O (some centres undefined)", 9.66),
    ("CC(C)(C)NC(=O)C1CN(Cc2cc3cccnc3o2)CCN1CC(O)CC(Cc1ccccc1)C(=O)NC1c2ccccc2CC1O (centres undefined)", 9.49),
    ("CC(C)(C)NC(=O)[C@@H]1CN(Cc2cnc3occc3c2)CCN1C[C@@H](O)C[C@@H](Cc1ccccc1)C(=O)N[C@H]1c2ccccc2C[C@H]1O", 9.46),
    ("CC(C)(C)NC(=O)[C@@H]1CN(Cc2cc3ccccc3o2)CCN1C[C@@H](O)C[C@@H](Cc1ccccc1)C(=O)N[C@H]1c2ccccc2C[C@H]1O", 9.74),
    ("CC(C)(C)NC(=O)[C@@H]1CN(Cc2cnc3c(c2)CCO3)CCN1C[C@@H](O)C[C@@H](Cc1ccccc1)C(=O)NC1c2ccccc2C[C@H]1O (some centres undefined)", 9.17),
    ("CCOc1ccc(CN2CCN(C[C@@H](O)C[C@@H](Cc3ccccc3)C(=O)NC3c4ccccc4C[C@H]3O)[C@H](C(=O)NC(C)(C)C)C2)cn1 (some centres undefined)", 8.47),
    ("Cc1cc2oc(CN3CCN(C[C@@H](O)C[C@@H](Cc4ccccc4)C(=O)NC4c5ccccc5C[C@H]4O)[C@H](C(=O)NC(C)(C)C)C3)cc2cn1 (some centres undefined)", 9.72),
    ("CC(C)(C)NC(=O)[C@@H]1CN(Cc2ccc(Cl)nc2)CCN1C[C@@H](O)C[C@@H](Cc1ccccc1)C(=O)NC1c2ccccc2C[C@H]1O (some centres undefined)", 9.31),
    ("CC(C)(C)NC(=O)[C@@H]1CN(Cc2nc3ccccc3[nH]2)CCN1C[C@@H](O)C[C@@H](Cc1ccccc1)C(=O)NC1c2ccccc2C[C@H]1O (some centres undefined)", 9.33),
    ("CSc1ncccc1CN1CCN(C[C@@H](O)C[C@@H](Cc2ccccc2)C(=O)NC2c3ccccc3C[C@H]2O)[C@H](C(=O)NC(C)(C)C)C1 (some centres undefined)", 9.59),
    ("CC(C)(C)NC(=O)C1CN(Cc2ccc3occc3c2)CCN1CC(O)CC(Cc1ccccc1)C(=O)NC1c2ccccc2CC1O (centres undefined)", 8.77),
    ("COc1ncccc1CN1CCN(C[C@@H](O)C[C@@H](Cc2ccccc2)C(=O)NC2c3ccccc3C[C@H]2O)[C@H](C(=O)NC(C)(C)C)C1 (some centres undefined)", 8.96),
    ("CC(C)(C)NC(=O)[C@@H]1CN(Cc2cc3ccncc3o2)CCN1C[C@@H](O)C[C@@H](Cc1ccccc1)C(=O)NC1c2ccccc2C[C@H]1O (some centres undefined)", 9.41),
    ("CC(C)(C)NC(=O)[C@@H]1CN(Cc2cnc3occc3c2Cl)CCN1C[C@@H](O)C[C@@H](Cc1ccccc1)C(=O)NC1c2ccccc2C[C@H]1O (some centres undefined)", 9.60),
]

* * *

pIC50 values by entry
Biological target: Human immunodeficiency virus type 1 protease (Human immunodeficiency virus 1, UniProt Q72874)
Assay: Concentration required for 50% inhibition of Protease
pIC50: −log10 of the molar value.

# molecule, pIC50
records = [
    ("Cc1nn(C)c2ncc(CN3CCN(C[C@@H](O)C[C@@H](Cc4ccccc4)C(=O)NC4c5ccccc5C[C@H]4O)[C@H](C(=O)NC(C)(C)C)C3)cc12 (stereo partly drawn)", 9.46),
    ("CC(C)(C)NC(=O)C1CN(Cc2csc3ncccc23)CCN1CC(O)CC(Cc1ccccc1)C(=O)NC1c2ccccc2CC1O (stereo not drawn)", 9.70),
    ("Cc1nn(C)c2ncc(CN3CCN(C[C@@H](O)C[C@@H](Cc4ccccc4)C(=O)NC4c5ccccc5C[C@H]4O)[C@H](C(=O)NC(C)(C)C)C3)c(Cl)c12 (stereo partly drawn)", 9.85),
]
